- assay-target: Prostaglandin G/H synthase 2 (Homo sapiens, UniProt P35354)
- Sequence (P35354 whole entry): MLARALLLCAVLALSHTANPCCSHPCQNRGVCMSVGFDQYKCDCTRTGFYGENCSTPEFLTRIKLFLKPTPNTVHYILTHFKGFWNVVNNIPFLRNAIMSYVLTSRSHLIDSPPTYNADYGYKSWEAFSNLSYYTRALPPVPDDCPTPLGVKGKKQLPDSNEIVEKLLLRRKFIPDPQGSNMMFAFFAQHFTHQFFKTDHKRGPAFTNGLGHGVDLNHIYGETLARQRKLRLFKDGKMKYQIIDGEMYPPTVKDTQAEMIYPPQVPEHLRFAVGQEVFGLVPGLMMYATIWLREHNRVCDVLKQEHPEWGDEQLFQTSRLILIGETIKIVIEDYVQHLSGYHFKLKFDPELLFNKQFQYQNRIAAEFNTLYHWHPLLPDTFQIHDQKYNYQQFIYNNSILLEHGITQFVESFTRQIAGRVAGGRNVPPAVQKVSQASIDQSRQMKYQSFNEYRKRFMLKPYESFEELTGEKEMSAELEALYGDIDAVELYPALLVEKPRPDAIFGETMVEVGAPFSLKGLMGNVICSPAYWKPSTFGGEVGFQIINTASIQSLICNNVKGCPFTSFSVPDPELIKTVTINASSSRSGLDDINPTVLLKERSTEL
- experimental-details: Inhibition of COX2 assessed as inhibition of PGE2 production using arachidonic acid as substrate after 10 mins by ELISA
measure: IC50 (µM)

Take a look at these entries with their results.
O=C(O)/C=C/C12C=C(O)C(=O)C=C1C(=O)C1=Cc3cc(O)c(O)cc3O[C@@H](c3ccc(O)c(O)c3)[C@@H]12 (relative stereo); 9.8
O=C(O)/C=C/c1ccc2c(c1)O[C@@H](C(=O)O)[C@@H](c1ccc(O)c(O)c1)O2 (relative stereo); 52.6

[1] O=C1O[C@@H](c2ccc(O)c(O)c2)[C@H](C(=O)O)/C1=C\c1ccc(O)c(O)c1
[2] O=C(O)/C=C/c1ccc2c(c1)O[C@H](c1cc(O)cc(O)c1)[C@H](C(=O)O)O2
Select the item whose IC50 value is smaller, choosing between 1 and 2 . Label of pick, please.
2
(2: 7.5 µM, 1: 42.6 µM)

Data origin: ChEMBL document CHEMBL1938240
